Measured pIC50 (UniProt:P30969)
Sequence (P30969 whole entry): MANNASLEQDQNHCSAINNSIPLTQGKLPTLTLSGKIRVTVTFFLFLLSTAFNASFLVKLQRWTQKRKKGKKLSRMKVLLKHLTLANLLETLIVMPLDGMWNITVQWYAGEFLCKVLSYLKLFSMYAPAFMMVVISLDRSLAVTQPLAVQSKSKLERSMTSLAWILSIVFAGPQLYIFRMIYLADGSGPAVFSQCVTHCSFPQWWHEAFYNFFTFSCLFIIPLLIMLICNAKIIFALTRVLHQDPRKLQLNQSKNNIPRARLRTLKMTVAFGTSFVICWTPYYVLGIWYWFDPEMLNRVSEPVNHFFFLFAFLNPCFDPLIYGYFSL
Remember, pIC50 is on a log scale: it is -log10 of the molar concentration.

Task: I'm curious: which pIC50 was measured for Cc1cc(C)cc(-c2[nH]c3ccccc3c2CCNCCCCc2ccc(S(N)(=O)=O)cc2)c1 tested on UniProt:P30969?
Output: 7.44

Task: Form: Entry = CCS(=O)(=O)Nc1ccc(CCCCNCCc2c(-c3cc(C)cc(C)c3)[nH]c3ccccc23)cc1 | System = UniProt:P30969 | pIC50 = ____
Output: 6.70

Task: Entry Cc1cc(C)cc(-c2[nH]c3ccccc3c2CCNCCCCc2ccc(F)cc2)c1 , system UniProt:P30969: what pIC50 was measured?
Output: 6.52

Task: Please state recorded pIC50 (tested on UniProt:P30969) of CC(=O)Nc1ccc(CCCCNCCc2c(-c3cc(C)cc(C)c3)[nH]c3ccccc23)cc1
Output: 6.70

Task: Which measured pIC50 belongs to CCNS(=O)(=O)Nc1ccc(CCCCNCCc2c(-c3cc(C)cc(C)c3)[nH]c3ccccc23)cc1 , tested on UniProt:P30969?
Output: 7.40

Task: Missing value: pIC50, UniProt:P30969, entry CNC(=O)Nc1ccc(CCCCNCCc2c(-c3cc(C)cc(C)c3)[nH]c3ccccc23)cc1 . Fill in?
Output: 7.32

Task: Request body: readout pIC50, system UniProt:P30969, query Cc1cc(C)cc(-c2[nH]c3ccccc3c2CCNCCCCc2ccc(NS(=O)(=O)c3ccccc3)cc2)c1 . Return the value.
Output: 6.52
